Reported pIC50 for target or system Histone deacetylase 1 (Homo sapiens, UniProt Q13547), by entry.
# pIC50: negative log10 of molar concentration; output just the value

O=C(NOCCN1CCOCC1)c1ccc(-c2noc(C(F)(F)F)n2)cc1 5.66

Query compound follows.
The compound O=C(NOCCN1CCCCC1)c1ccc(-c2noc(C(F)(F)F)n2)cc1 , when measured on Histone deacetylase 1 (Homo sapiens, UniProt Q13547), yielded pIC50 of 4.68

* * *

Study system: Histone deacetylase 4 (Homo sapiens, UniProt P56524)
Sequence (P56524 whole entry, the tested form may be a part): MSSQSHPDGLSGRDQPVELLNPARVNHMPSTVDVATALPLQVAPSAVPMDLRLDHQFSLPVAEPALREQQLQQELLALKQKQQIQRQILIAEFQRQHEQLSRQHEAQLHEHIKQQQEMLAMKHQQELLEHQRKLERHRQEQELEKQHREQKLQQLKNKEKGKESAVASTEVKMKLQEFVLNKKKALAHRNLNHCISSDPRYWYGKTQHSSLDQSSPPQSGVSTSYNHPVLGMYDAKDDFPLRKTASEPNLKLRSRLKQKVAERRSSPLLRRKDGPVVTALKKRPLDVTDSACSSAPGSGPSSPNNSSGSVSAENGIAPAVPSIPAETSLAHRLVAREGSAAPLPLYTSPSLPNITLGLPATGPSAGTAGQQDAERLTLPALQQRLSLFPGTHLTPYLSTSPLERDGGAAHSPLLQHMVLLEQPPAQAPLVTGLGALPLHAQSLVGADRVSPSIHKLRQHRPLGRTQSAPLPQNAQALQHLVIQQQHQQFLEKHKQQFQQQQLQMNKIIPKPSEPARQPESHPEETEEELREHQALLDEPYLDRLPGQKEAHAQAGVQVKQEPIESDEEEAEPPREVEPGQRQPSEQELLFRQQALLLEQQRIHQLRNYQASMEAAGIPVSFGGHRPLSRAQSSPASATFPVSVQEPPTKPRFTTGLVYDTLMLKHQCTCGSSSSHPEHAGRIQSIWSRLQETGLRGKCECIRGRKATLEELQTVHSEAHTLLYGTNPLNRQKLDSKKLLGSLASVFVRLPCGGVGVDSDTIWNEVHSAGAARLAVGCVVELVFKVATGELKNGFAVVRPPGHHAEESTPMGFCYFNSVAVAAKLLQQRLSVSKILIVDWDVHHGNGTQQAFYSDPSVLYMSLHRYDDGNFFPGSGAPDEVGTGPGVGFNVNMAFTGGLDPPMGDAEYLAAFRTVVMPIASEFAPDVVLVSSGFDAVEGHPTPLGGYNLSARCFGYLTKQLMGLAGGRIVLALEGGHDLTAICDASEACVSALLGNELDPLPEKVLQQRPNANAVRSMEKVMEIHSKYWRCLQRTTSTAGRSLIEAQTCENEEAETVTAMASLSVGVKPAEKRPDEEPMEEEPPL
Assay remarks: Inhibition of human recombinant TEV-8His-tagged HDAC4 (648 to 1057 residues) expressed in Escherichia coli (DE3) Rosetta cells using Boc-Lys-(Tfa)-AMC as substrate preincubated for 5 mins followed by substrate addition and measured after 90 mins by fluorescence based microplate reader analysis
pIC50 values, listed per item
Scale explanation: pIC50 corresponds to minus log10 of a concentration expressed in moles per litre.

Example entries begin here.
CCN(CC)CCCCNC(=O)c1ccc(-c2noc(C(F)(F)F)n2)cc1 6.86
CN(Cc1ccccc1)C(=O)c1ccc(-c2noc(C(F)(F)F)n2)cc1 7.60

Reported pIC50 for CN(C(=O)c1ccc(-c2noc(C(F)(F)F)n2)cc1)c1ccccc1 was 6.12

Looking up CN1CCN(C(=O)c2ccc(-c3noc(C(F)(F)F)n3)cc2)CC1 , I found its pIC50 recorded as 5.93

Noted for CCN(CC)CCN(C)C(=O)c1ccc(-c2noc(C(F)(F)F)n2)cc1 : its pIC50 reads 6.70

Measured pIC50, O=C(NCCc1c[nH]c2ccccc12)c1ccc(-c2noc(C(F)(F)F)n2)cc1 : 6.16

For reference, reported pIC50 for O=C(NOCCN1CCOCC1)c1ccc(-c2noc(C(F)(F)F)n2)cc1 stands at 6.85

* * *

The reader will find reported pIC50 values listed item by item below.
Study system: Histone deacetylase 5 (Homo sapiens)
Sequence (Q9UQL6 whole entry): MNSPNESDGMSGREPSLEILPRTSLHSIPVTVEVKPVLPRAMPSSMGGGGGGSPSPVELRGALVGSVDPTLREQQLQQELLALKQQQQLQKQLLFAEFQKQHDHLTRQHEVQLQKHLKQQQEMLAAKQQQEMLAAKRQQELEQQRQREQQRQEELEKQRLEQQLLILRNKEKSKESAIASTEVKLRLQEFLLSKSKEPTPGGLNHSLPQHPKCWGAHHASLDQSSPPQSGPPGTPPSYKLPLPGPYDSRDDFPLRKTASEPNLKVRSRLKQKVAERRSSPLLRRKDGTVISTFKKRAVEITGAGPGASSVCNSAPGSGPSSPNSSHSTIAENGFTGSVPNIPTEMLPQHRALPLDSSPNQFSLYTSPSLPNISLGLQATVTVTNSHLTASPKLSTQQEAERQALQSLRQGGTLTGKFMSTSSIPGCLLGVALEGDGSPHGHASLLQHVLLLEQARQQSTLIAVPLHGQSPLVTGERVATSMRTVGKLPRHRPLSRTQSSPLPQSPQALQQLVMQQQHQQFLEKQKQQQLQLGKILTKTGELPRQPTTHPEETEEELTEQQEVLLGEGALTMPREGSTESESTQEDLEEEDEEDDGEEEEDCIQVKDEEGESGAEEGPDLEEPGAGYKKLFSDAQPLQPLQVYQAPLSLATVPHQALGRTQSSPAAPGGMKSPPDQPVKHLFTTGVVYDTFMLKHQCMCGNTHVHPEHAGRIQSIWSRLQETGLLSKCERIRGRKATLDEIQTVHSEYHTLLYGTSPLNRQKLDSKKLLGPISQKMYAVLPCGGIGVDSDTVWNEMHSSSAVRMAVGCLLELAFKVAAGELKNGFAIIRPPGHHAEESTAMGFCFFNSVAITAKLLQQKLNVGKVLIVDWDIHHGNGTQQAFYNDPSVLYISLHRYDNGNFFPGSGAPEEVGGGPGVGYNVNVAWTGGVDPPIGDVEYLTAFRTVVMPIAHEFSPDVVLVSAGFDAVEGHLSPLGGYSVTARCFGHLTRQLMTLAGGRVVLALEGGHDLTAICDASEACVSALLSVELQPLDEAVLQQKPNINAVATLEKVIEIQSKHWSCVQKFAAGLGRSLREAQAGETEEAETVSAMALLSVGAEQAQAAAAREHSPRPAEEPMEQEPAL
Keep it numeric: pIC50 is minus log10 of the concentration in mol/L.

O=C(NOCCN1CCCCC1)c1ccc(-c2noc(C(F)(F)F)n2)cc1 6.57

// moving on: another record for pIC50
// pIC50 value for CCN(CC)CCNC(=O)c1ccc(-c2noc(C(F)(F)F)n2)cc1 : 7.72

* * *

Tested on: THP-1
Assay remarks: Antiproliferative activity against human THP-1 cells assessed as reduction in cell viability at 100 uM incubated for 72 hrs by MTT assay relative to control
Format: functional
Label 1 for high-side Activity (at or above 50%) and 0 for low-side Activity (below it).

The examples below pair each entry with its known result.
O=C(NOCCN1CCOCC1)c1ccc(-c2noc(C(F)(F)F)n2)cc1 0
CCN(CC)CCNC(=O)c1ccc(-c2noc(C(F)(F)F)n2)cc1 1
CN(C(=O)c1ccc(-c2noc(C(F)(F)F)n2)cc1)c1ccccc1 0
Cc1[nH]c2ccccc2c1CCNCc1ccc(/C=C/C(=O)NO)cc1 1
O=C(NOCc1coc(-c2ccccc2)n1)c1ccc(-c2noc(C(F)(F)F)n2)cc1 0
O=C(Nc1cnc2ccccc2c1)c1ccc(-c2noc(C(F)(F)F)n2)cc1 1
O=C(CCCCCCC(=O)Nc1ccccc1)NO 1
O=C(NCC1(c2nc(-c3ccccc3)cs2)CCOCC1)c1cccc(-c2noc(C(F)(F)F)n2)c1 1

Please tell me: is the compound CN1CCN(C(=O)c2ccc(-c3noc(C(F)(F)F)n3)cc2)CC1 at or over 50% in terms of Activity?
0

Given the entry CCN(CC)CCCCNC(=O)c1ccc(-c2noc(C(F)(F)F)n2)cc1 , answer whether its Activity meets or surpasses 50%.
0

Please tell me: is the compound CCN(CC)CCN(C)C(=O)c1ccc(-c2noc(C(F)(F)F)n2)cc1 at or over 50% in terms of Activity?
0

Given CN(Cc1ccccc1)C(=O)c1ccc(-c2noc(C(F)(F)F)n2)cc1 , state whether its Activity is at least 50%.
0

Can O=C(NOCCN1CCCCC1)c1ccc(-c2noc(C(F)(F)F)n2)cc1 be said to have Activity at or above 50%?
0

* * *

Study system: Histone deacetylase 2 (Homo sapiens, UniProt Q92769)
Sequence (Q92769 whole entry): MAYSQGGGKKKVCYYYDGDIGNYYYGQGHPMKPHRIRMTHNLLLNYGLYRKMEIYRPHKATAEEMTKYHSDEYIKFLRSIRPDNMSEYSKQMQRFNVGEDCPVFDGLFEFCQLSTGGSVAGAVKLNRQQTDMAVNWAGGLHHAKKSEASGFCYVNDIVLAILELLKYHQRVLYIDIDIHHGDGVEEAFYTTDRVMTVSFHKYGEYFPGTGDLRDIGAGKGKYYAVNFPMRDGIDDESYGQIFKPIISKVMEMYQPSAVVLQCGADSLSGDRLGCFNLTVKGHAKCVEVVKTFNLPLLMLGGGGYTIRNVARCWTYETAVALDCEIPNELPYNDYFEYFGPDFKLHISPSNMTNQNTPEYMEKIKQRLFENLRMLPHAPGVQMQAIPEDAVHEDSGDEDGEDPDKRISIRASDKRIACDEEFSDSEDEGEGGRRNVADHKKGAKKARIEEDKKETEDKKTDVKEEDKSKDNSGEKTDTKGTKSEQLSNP
Assay remarks: Inhibition of human recombinant HDAC2 using Boc-Lys(Ac)-AMC as substrate preincubated for 5 mins followed by substrate addition and measured after 90 mins by fluorescence based microplate reader analysis
Experimental endpoint: IC50 (µM)
Expressed in µM, but write only the number.

CCN(CC)CCNC(=O)c1ccc(-c2noc(C(F)(F)F)n2)cc1 6.13
CN1CCN(C(=O)c2ccc(-c3noc(C(F)(F)F)n3)cc2)CC1 80
O=C(NOCCN1CCOCC1)c1ccc(-c2noc(C(F)(F)F)n2)cc1 9.77
CCN(CC)CCN(C)C(=O)c1ccc(-c2noc(C(F)(F)F)n2)cc1 34.8
CN(Cc1ccccc1)C(=O)c1ccc(-c2noc(C(F)(F)F)n2)cc1 8.13

# context switch: different compound, same IC50
Item CCN(CC)CCCCNC(=O)c1ccc(-c2noc(C(F)(F)F)n2)cc1 ; assay system Histone deacetylase 2 (Homo sapiens, UniProt Q92769); IC50 reported as 25.4

* * *

Test system: CAL-27
Assay remarks: Antiproliferative activity against human CAL-27 cells overexpressing HDAC4 assessed as inhibition of cell growth incubated for 72 hrs by MTT assay
Type: functional, cell-based
Experimental parameters: CAL-27, 72 h
Experimental endpoint: IC50 (µM)
Give the quantity in µM, number only.

Sample answers from the record:
Molecule	Study system	Measurement unit	IC50
CC(C)C[C@H](NC(=O)[C@H](Cc1ccccc1)NC(=O)c1cnccn1)B(O)O [BORTEZOMIB]	CAL-27	µM	4.73
CCN(CC)CCNC(=O)c1ccc(-c2noc(C(F)(F)F)n2)cc1	CAL-27	µM	8.63

Lab note: measured IC50 of O=C(NOCCN1CCCCC1)c1ccc(-c2noc(C(F)(F)F)n2)cc1 was 69.8

Form: molecule = O=C(NO)C(c1ccc(-c2ncc(C(F)(F)F)cn2)cc1)c1ccccc1F (centres undefined) ; IC50 = 12.8

* * *

This listing pairs compounds with measured pIC50.
Study system: Protein deacetylase HDAC6 (Homo sapiens)
Sequence (Q9UBN7 whole entry): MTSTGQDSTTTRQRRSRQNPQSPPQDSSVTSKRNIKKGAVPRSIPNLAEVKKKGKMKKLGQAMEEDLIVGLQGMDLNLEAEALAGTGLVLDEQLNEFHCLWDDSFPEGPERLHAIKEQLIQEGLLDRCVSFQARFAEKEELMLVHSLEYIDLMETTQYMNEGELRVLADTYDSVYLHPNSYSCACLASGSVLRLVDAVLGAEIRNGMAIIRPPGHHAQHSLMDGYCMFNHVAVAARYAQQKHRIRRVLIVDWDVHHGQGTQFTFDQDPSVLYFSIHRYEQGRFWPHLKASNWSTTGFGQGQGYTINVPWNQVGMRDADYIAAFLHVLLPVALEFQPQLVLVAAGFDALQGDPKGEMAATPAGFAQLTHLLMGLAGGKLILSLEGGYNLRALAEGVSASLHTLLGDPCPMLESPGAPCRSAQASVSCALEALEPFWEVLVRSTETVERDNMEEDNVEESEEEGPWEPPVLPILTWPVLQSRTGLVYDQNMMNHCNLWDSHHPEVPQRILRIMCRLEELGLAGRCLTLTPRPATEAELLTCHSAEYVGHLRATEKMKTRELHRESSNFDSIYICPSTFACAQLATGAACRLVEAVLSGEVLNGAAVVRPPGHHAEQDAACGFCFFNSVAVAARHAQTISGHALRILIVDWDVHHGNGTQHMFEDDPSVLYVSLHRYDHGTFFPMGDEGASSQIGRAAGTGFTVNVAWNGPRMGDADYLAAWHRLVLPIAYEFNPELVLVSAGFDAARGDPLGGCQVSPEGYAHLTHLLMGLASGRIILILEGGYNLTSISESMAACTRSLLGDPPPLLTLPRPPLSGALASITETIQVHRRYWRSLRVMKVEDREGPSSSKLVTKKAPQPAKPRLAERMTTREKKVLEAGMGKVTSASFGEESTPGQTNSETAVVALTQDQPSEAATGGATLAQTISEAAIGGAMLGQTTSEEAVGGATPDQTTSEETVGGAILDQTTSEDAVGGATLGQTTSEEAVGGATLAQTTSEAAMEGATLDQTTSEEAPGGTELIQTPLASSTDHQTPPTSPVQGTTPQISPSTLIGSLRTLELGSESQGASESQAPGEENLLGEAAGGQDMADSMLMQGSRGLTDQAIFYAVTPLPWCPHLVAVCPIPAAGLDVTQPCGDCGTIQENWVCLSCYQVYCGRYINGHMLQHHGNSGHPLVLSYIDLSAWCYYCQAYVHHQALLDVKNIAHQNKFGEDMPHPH
Assay remarks: Inhibition of human recombinant HDAC6 using Boc-Lys(Ac)-AMC as substrate preincubated for 5 mins followed by substrate addition and measured after 90 mins by fluorescence based microplate reader analysis
By convention, pIC50 is the negative base-10 log of a molar concentration.

// pIC50 value for CCN(CC)CCN(C)C(=O)c1ccc(-c2noc(C(F)(F)F)n2)cc1 : 4.77
